TEST_TARGET: T1, Human TREM2 extracellular domain (ECD), residues 19-131, C-terminally biotinylated, deglycosylated (human, UniProt Q9NZC2 19-131, C-terminally biotinylated; deglycosylated)
T1 construct: range 19-131; loaded on Superstreptavidin biosensors; also called triggering receptor expressed on myeloid cells 2; Human BLI (deglycosylated)
T1 sequence (looked up): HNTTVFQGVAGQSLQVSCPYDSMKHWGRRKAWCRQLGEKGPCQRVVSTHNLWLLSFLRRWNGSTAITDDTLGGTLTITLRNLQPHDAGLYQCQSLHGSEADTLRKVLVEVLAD
ASSAY: BLI steady state, deglycosylated human TREM2 ECD on sensor
*1 amine or outer side, *2 acyl side, *3 side chain or, on linkers, in order; H or OH if unused. Bridges are numbered along the chain shown (N, C = ends). Where no end group is shown, it is not given here. [ ]: non-standard residue; d: D form. TATA = O=C(CC[*:1])N1CN(C(=O)CC[*:2])CN(C(=O)CC[*:3])C1; Aib = CC(C)(N)C(=O)O
ASSAY_METRIC: Kd (nM)
Supply the numeric figure in nM, leaving out any unit text.

Task item: Entry ACSNYCFWPFFQCA (linker 2-6-13 via TATA) [BCY19772] has what Kd?
Reply: 960

Task item: What value of Kd has been reported for the following binder? Ac-CSEYCFW[Aib]FYHC (linker 1-5-12 via TATA) [BCY19670]
Reply: 30000

Task item: What does the data say about its Kd? Entry: ACSEYCFWPFYSCA (linker 2-6-13 via TATA) [BCY17669]
Reply: 1200

Task item: Look up Kd: CSEYCFXPFYHC (not fully specified; N-terminal acetyl (Ac); CiSEYCiiF[AzaTrp]PFYHCiii; Ci, Cii, Ciii on TATA scaffold) [BCY20062]
Reply: 3440

Reference source for all entries: patent US20220296726A1
